measurement_protocol: Metabolic stability in human pooled liver microsomes assessed as compound remaining at 10 uM after 120 mins in presence of NADPH by Radio-HPLC analysis
Type: ADME, microsome
condition_parameters: read-out: Stability
measure: remaining at 2 h, 10 µM (%)
Express it in %; write the number only.

Task item: Which remaining at 2 h, 10 µM reading was recorded for the molecule Cl.O=C(O)CNC(=O)c1c(O)cc(CCc2ccccc2)n2ncnc12 ?
Reply: 94

----------
measurement_protocol: Cmax in CD(SD) rat at 1 mg/kg, po
Assay type: ADME, organism-based
Design: dose 1 mg/kg, route oral
condition_parameters: in vivo
measure: Cmax (ng/mL)
Field format: number, assumed ng/mL, no unit text.

Task item: Which value of Cmax has been reported for Cl.O=C(O)CNC(=O)c1c(O)cc(CCc2ccccc2)n2ncnc12 in the records?
Reply: 2700

----------
target_of_assay: Cytochrome P450 3A5 (Homo sapiens, UniProt P20815)
Sequence (P20815 whole entry): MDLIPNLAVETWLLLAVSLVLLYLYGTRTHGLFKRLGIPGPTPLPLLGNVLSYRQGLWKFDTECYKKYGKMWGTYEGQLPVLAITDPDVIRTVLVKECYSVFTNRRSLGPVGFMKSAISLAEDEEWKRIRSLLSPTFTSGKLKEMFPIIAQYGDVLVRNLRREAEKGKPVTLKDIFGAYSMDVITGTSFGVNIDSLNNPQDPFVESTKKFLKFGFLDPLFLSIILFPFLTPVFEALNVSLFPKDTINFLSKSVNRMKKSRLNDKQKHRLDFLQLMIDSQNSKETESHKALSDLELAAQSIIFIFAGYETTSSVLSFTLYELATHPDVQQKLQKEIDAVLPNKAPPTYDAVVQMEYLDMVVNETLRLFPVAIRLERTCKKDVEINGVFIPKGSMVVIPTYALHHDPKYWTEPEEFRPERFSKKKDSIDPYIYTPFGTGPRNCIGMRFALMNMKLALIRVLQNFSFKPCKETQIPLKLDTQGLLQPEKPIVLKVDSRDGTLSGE
measure: IC50

Task item: Lab note: need IC50 with Cytochrome P450 3A5 (Homo sapiens, UniProt P20815) for entry Cl.O=C(O)CNC(=O)c1c(O)cc(CCc2ccccc2)n2ncnc12 , please look it up.
Reply: > 100 µM

----------
measurement_protocol: Total clearance in CD(SD) rat at 0.3 mg/kg, iv
Format: ADME, organism-based
condition_parameters: in vivo
measure: clearance (mL/min/kg)
Provide only the numeric value, understood in mL/min/kg.

Task item: Query: clearance; subject: Cl.O=C(O)CNC(=O)c1c(O)cc(CCc2ccccc2)n2ncnc12
Reply: 2.7

----------
target_of_assay: Cytochrome P450 1A2 (Homo sapiens)
Sequence (P05177 whole entry): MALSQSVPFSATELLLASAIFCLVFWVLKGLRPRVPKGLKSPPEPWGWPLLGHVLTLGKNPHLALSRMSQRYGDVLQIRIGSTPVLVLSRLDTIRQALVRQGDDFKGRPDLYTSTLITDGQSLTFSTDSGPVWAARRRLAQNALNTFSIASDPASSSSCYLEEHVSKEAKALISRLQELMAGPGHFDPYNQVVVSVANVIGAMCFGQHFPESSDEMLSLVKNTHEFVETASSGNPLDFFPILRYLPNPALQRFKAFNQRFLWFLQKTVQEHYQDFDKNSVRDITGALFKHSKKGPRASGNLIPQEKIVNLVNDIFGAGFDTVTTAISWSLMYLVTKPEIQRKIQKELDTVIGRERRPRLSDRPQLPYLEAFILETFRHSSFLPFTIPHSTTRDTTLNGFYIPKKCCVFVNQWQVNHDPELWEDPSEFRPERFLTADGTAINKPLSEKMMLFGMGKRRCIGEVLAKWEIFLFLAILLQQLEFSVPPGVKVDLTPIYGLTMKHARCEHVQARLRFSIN
measurement_protocol: Inhibition of CYP1A2 in human liver microsomes by LC-MS/MS analysis
Type: ADME
pIC50: −log10 of the molar value.
measure: pIC50

Task item: // returns reported pIC50 for input Cl.O=C(O)CNC(=O)c1c(O)cc(CCc2ccccc2)n2ncnc12
Reply: < 4.00

----------
measurement_protocol: in vitro
condition_parameters: human, Caco-2
measure: Papp A→B at 2 h, 25 µM

Answered examples (8):
Task item: Please look up its Papp A→B at 2 h, 25 µM: O=C(O)CNC(=O)c1c(O)ccn2ccnc12
Reply: 0.8 ×10⁻⁶ cm/s

Task item: Item under review: Cl.O=C(O)CNC(=O)c1c(O)ccc2ncnn12 . Reported Papp A→B at 2 h, 25 µM?
Reply: 0.4 ×10⁻⁶ cm/s

Task item: Look at this compound and give its reported Papp A→B at 2 h, 25 µM. Cl.O=C(O)CNC(=O)c1c(O)ccn2ncnc12
Reply: 0.86 to 0.9 ×10⁻⁶ cm/s

Task item: Which Papp A→B at 2 h, 25 µM is reported for this compound? Cl.O=C(O)CNC(=O)c1c(O)cc(-c2ccccc2)n2ncnc12
Reply: 2.5 ×10⁻⁶ cm/s

Task item: Papp A→B at 2 h, 25 µM for Cl.O=C(O)CNC(=O)c1c(O)cc(CCc2ccc(F)cc2)n2ncnc12 ?
Reply: 12 ×10⁻⁶ cm/s

Task item: Data request, read-out Papp A→B at 2 h, 25 µM, for O=C(O)CNC(=O)c1c(O)cc(-c2cccc(Cl)c2)n2ncnc12
Reply: 6.1 ×10⁻⁶ cm/s

Task item: What measured Papp A→B at 2 h, 25 µM goes with Cl.O=C(O)CNC(=O)c1c(O)cc(CCc2ccccc2)c2ncnn12 ?
Reply: 9.3 ×10⁻⁶ cm/s

Task item: # query: Papp A→B at 2 h, 25 µM of entry Cl.O=C(O)CNC(=O)c1c(O)cc(C2CCCCC2)n2ncnc12
Reply: 21 ×10⁻⁶ cm/s

---
Task item: # query: Papp A→B at 2 h, 25 µM of entry O=C(O)CNC(=O)c1nc(Cl)c2ccccc2c1O
Reply: 63 ×10⁻⁶ cm/s

Task item: Entry CCc1c(O)c(C(=O)NCC(=O)O)c2ncnn2c1CC.Cl has what Papp A→B at 2 h, 25 µM?
Reply: 9.3 ×10⁻⁶ cm/s

Task item: Please give the measured Papp A→B at 2 h, 25 µM for this compound: CCCCCc1cc(O)c(C(=O)NCC(=O)O)c2ncnn12.Cl
Reply: 20 ×10⁻⁶ cm/s

Task item: What value of Papp A→B at 2 h, 25 µM has been recorded for this entry: Cl.O=C(O)CNC(=O)c1c(O)cc(CCc2ccccc2)n2ncnc12
Reply: 13 ×10⁻⁶ cm/s

Task item: Returns the measured Papp A→B at 2 h, 25 µM for the input compound. Input: Cl.O=C(O)CNC(=O)c1c(O)cc(C2CCCCC2)c2ncnn12
Reply: 18 ×10⁻⁶ cm/s

Task item: # lookup: Papp A→B at 2 h, 25 µM of CCCCCc1cn2ncnc2c(C(=O)NCC(=O)O)c1O.Cl
Reply: 15 ×10⁻⁶ cm/s

Task item: Field request: Papp A→B at 2 h, 25 µM | item: Cl.O=C(O)CNC(=O)c1c(O)ccn2cnnc12
Reply: < 0.4 ×10⁻⁶ cm/s

Task item: Quick one: Papp A→B at 2 h, 25 µM of O=C(O)CNC(=O)c1c(O)cc(-c2cccc(Cl)c2)c2ncnn12 ?
Reply: 15 ×10⁻⁶ cm/s

Task item: Looking for the measured Papp A→B at 2 h, 25 µM of CCCCc1cc(O)c(C(=O)NCC(=O)O)c2ncnn12.Cl , can you help?
Reply: 9.9 ×10⁻⁶ cm/s

----------
measurement_protocol: Volume of distribution at steady state in CD(SD) rat at 0.3 mg/kg, iv
Type: ADME, organism-based
condition_parameters: in vivo, read-out: Vdss
measure: Vd (L/kg)
All answers are understood in L/kg, so give the number only.

Task item: Which measured Vd value corresponds to Cl.O=C(O)CNC(=O)c1c(O)cc(CCc2ccccc2)n2ncnc12 ?
Reply: 0.28

----------
System: Rattus norvegicus
measurement_protocol: Toxicity in CD(SD) rat assessed as induction of anorexia at 100 mg/kg, po administered as single dose
Type: organism-based
condition_parameters: in vivo
measure: Activity

Task item: Given the entry CCCCc1cc(O)c(C(=O)NCC(=O)O)c2ncnn12.Cl , what Activity was observed with Rattus norvegicus?
Reply: Non-Toxic

Task item: For the record CCCCCc1cc(O)c(C(=O)NCC(=O)O)c2ncnn12.Cl , what value of Activity is listed for Rattus norvegicus?
Reply: Toxic

Task item: Record lookup: for Rattus norvegicus, what Activity belongs to Cl.O=C(O)CNC(=O)c1c(O)cc(CCc2ccccc2)n2ncnc12 ?
Reply: Non-Toxic

Task item: Requested read-out Activity, target or system Rattus norvegicus, entry O=C(O)CNC(=O)c1c(O)cc(-c2cccc(Cl)c2)n2ncnc12
Reply: Toxic

----------
measurement_protocol: Tmax in CD(SD) rat at 1 mg/kg, po
Type: ADME, organism-based
condition_parameters: in vivo
measure: Tmax
Kindly report the value followed by its unit.

Task item: // lookup Tmax for Cl.O=C(O)CNC(=O)c1c(O)cc(CCc2ccccc2)n2ncnc12
Reply: 19.8 min

----------
measurement_protocol: in vitro
condition_parameters: human, Caco-2
measure: Papp A→B at 2 h, 25 µM (×10⁻⁶ cm/s)
Answer format: numeric, ×10⁻⁶ cm/s implied, no suffix.

Please review the entries below; each comes with its answer.
Task item: Look at this compound and give its reported Papp A→B at 2 h, 25 µM. CCCc1cc(O)c(C(=O)NCC(=O)O)c2ncnn12.Cl
Reply: 2.1

Task item: Could you share which Papp A→B at 2 h, 25 µM value was measured for Cl.O=C(O)CNC(=O)c1c(O)cc(-c2ccccc2)c2ncnn12 ?
Reply: 6.5

We next turn to a different compound, shown below.
Task item: # query: Papp A→B at 2 h, 25 µM of entry Cc1nc2c(C(=O)NCC(=O)O)c(O)cc(CCc3ccccc3)n2n1.Cl
Reply: 8.9
